meta.source: PubChem BioAssay AID1851

- target: Cytochrome P450 3A4 (Homo sapiens)
- assayText: Cytochrome panel assay with activity outcomes; further: on the % scale 0 is the no-effect control and ±100 the full control effect
- condition: recombinant CYP, pro-luciferin dealkylation, luminescence, p450-cyp3a4; series mostly up to 57.1 µM
- Method: The P450 gene superfamily is involved in the metabolism and clearance of xenobiotics. This assay used various human CYP P450 isozymes to measure the dealkylation of various pro-luciferin substrates to luciferin. The luciferin is then measured by luminescence after the addition of a luciferase detection reagent. […] Inhibitors and some substrates limit the production of luciferin, and decrease measured luminescence. […] 8, Detection, 1 sec, ViewLux luminescent read […]
Screen size: about 16,000 compounds; about 5,100 (32%) were called active. Another 25% or so got no clear call; they are omitted. Some of the results follow.

{"columns": ["compound", "target", "activity, negative = inhibition"],
 "data": [
  ["OC1(c2ccc(F)cc2)CCNC1 (configuration not stated)", "Cytochrome P450 3A4 (Homo sapiens)", "inactive"],
  ["[N-]=[N+]=CC(=O)CC[C@H](N)C(=O)O", "Cytochrome P450 3A4 (Homo sapiens)", "-9.62% [at 11.4 µM] (inactive)"],
  ["COc1ccccc1CC1C(=O)C2CCN1CC2 (configuration not stated)", "Cytochrome P450 3A4 (Homo sapiens)", "inactive"],
  ["O=[N+]([O-])c1cc(-c2ccc([As](=O)(O)O)cc2)ccc1[As](=O)(O)O", "Cytochrome P450 3A4 (Homo sapiens)", "9.09% [at 11.4 µM] (inactive)"],
  ["c1ccc2nc(N3CCNCC3)ccc2c1", "Cytochrome P450 3A4 (Homo sapiens)", "inactive"],
  ["O=[N+]([O-])c1cc([As](=O)(O)O)ccc1O", "Cytochrome P450 3A4 (Homo sapiens)", "inactive"],
  ["NCCc1c[nH]c2ccc(C(N)=O)cc12", "Cytochrome P450 3A4 (Homo sapiens)", "inactive"],
  ["Cc1nc(-c2ccc(-c3ccc(C(=O)N4CCc5cc6c(cc54)C4(CCN(C)CC4)CO6)cc3)c(C)c2)no1", "Cytochrome P450 3A4 (Homo sapiens)", "inactive"],
  ["CCCN1CCc2cc(O)cc3c2[C@H]1Cc1ccc(O)c(O)c1-3", "Cytochrome P450 3A4 (Homo sapiens)", "inactive"],
  ["CCSCC[C@H](N)C(=O)O", "Cytochrome P450 3A4 (Homo sapiens)", "5.54% [at 11.4 µM] (inactive)"],
  ["CN1CCN(c2ccc([N+](=O)[O-])c(N/N=C3\\CN4CCC3CC4)c2)CC1", "Cytochrome P450 3A4 (Homo sapiens)", "inactive"],
  ["CCOC(=O)c1ncn2c1CN(C)C(=O)c1cc(F)ccc1-2", "Cytochrome P450 3A4 (Homo sapiens)", "inactive"]
]}

---

- target: Cytochrome P450 3A4 (Homo sapiens) (UniProt P08684)
- Sequence (P08684 whole entry, looked up): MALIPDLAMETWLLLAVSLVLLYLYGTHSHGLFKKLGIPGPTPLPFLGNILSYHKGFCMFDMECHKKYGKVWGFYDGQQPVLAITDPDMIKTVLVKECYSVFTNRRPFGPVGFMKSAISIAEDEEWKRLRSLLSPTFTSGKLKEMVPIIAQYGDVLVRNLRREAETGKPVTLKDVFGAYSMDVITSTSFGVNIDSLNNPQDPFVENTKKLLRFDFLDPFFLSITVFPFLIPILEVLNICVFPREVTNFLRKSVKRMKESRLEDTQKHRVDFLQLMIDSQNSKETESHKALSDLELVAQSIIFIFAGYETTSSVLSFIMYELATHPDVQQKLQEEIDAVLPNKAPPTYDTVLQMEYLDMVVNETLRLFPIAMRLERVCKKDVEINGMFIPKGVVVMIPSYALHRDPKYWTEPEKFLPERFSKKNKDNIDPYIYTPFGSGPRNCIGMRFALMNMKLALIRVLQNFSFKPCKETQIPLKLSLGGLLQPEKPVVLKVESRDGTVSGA
- assayText: Cytochrome panel assay with activity outcomes; further: on the % scale 0 is the no-effect control and ±100 the full control effect
- condition: recombinant CYP, pro-luciferin dealkylation, luminescence, p450-cyp3a4; series mostly up to 57.1 µM
About 5,100 (32%) of roughly 16,000 compounds were called active. Not shown: some 25% with an inconclusive outcome. The list shows a part of the results.

{"columns": ["chemSmiles", "activity, negative = inhibition"],
 "data": [
  ["O=[As](O)(O)c1ccc2nc3cc([As](=O)(O)O)ccc3nc2c1", "5.92% [at 11.4 µM] (inactive)"],
  ["NO", "inactive"],
  ["C/C=C1\\C[C@H](C)[C@@](O)(CO)C(=O)OCC2=CCN3CC[C@@H](OC1=O)[C@@H]23", "inactive"],
  ["CC[C@@H](CO)NC(=O)[C@H]1C=C2c3cccc4c3c(cn4C)C[C@H]2N(C)C1", "inactive"],
  ["Cc1cccc(N2C(=O)NC(=O)/C(=C\\c3cnn(-c4ccccc4)c3)C2=O)c1", "8.31% [at 2.29 µM] (inactive)"],
  ["O=C1C2CCN(CC2)C1(CO)CO", "inactive"],
  ["CC[N+](CC)(CCCNC1=CC(=O)C(NCCC[N+](CC)(CC)Cc2ccccc2)=CC1=O)Cc1ccccc1", "inactive"]
]}

---

- target: Cytochrome P450 3A4 (Homo sapiens)
- assayText: Cytochrome panel assay with activity outcomes; further: on the % scale 0 is the no-effect control and ±100 the full control effect
- condition: recombinant CYP, pro-luciferin dealkylation, luminescence, p450-cyp3a4; series mostly up to 57.1 µM
Hit rate of the full screen: of about 16,000 compounds, about 5,100 (32%) were called active. Another 25% or so got no clear call; they are omitted. The list shows a part of the results.

{"columns": ["chemSmiles", "activity, negative = inhibition"],
 "data": [
  ["COc1cc([C@@H](O)CN)ccc1O", "inactive"],
  ["C[C@]12CC[C@H]3c4ccc(O)cc4CC[C@@H]3[C@H]1CC[C@@H]2OC(=O)CCc1ccccc1", "-2.52% [at 11.4 µM] (inactive)"],
  ["CC(=O)NCCc1c[nH]c2ccccc12", "inactive"],
  ["N[C@@]1(C(=O)O)CC[C@H](C(=O)O)C1", "inactive"],
  ["O=P(O)(O)C(Cl)(Cl)P(=O)(O)O", "inactive"],
  ["CCN1C[C@]2(C)CC[C@@H](O)[C@]34[C@@H]5CC6[C@@H](OC)C[C@@](O)([C@H]5[C@@H]6O)[C@@H](C[C@@H]23)[C@H]14", "inactive"],
  ["CC[N+](CC)(CC)CCOc1cccc(OCC[N+](CC)(CC)CC)c1OCC[N+](CC)(CC)CC", "inactive"],
  ["c1cncc(CNCCN2CCNCC2)c1", "-5.07% [at 11.4 µM] (inactive)"]
]}
